B1: MIA2 (parent)
chain: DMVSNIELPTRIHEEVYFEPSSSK

Variants of: B1
Test: protein stability index of a GFP-peptide fusion (GPS, HEK-293T) (PSI 1-6); higher = more stable;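 also: lentivirally expressed fusions sorted by FACS into six bins by GFP to DsRed ratio, PSI derived from sequencing read proportions per bin multiplied by bin number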
Settings: c terminus: a fixed tail appended
Returns yes if the recorded protein stability index is greater than or equal to 4, and no otherwise.

[
  {
    "mutation-descriptor": "Y17P",
    "cat": "yes"
  },
  {
    "mutation-descriptor": "V16W",
    "cat": "no"
  },
  {
    "mutation-descriptor": "F18D",
    "cat": "yes"
  },
  {
    "mutation-descriptor": "L8V",
    "cat": "yes"
  },
  {
    "mutation-descriptor": "D1G",
    "cat": "no"
  },
  {
    "mutation-descriptor": "Y17E",
    "cat": "yes"
  },
  {
    "mutation-descriptor": "E7P",
    "cat": "no"
  },
  {
    "mutation-descriptor": "I12N",
    "cat": "no"
  },
  {
    "mutation-descriptor": "F18L",
    "cat": "yes"
  },
  {
    "mutation-descriptor": "S22I",
    "cat": "no"
  },
  {
    "mutation-descriptor": "I6R",
    "cat": "no"
  }
]
